Tested on: LNCaP cells
test summary: XTT cytotoxicity assay in LNCaP cells
Format: cell-based
measurement conditions: 24 h and 72 h, n = 4 (Figures 6, 7)
result type: cytotoxicity of drug compared with its leucine conjugate, LNCaP

CCc1c2c(nc3ccc(O)cc13)-c1cc3c(c(=O)n1C2)COC(=O)[C@]3(O)CC [SN-38, 7-Ethyl-10-hydroxycamptothecin] ... comparable cytotoxicity
CCc1c2c(nc3ccc(O)cc13)-c1cc3c(c(=O)n1C2)COC(=O)C3(CC)OC(=O)C(N)CC(C)C (stereo not shown) [L–SN–38, NH2-Leu–SN–38] ... comparable cytotoxicity
CO[C@H]1C(=O)[C@]2(C)[C@@H](OC)C[C@H]3OC[C@@]3(OC(C)=O)[C@H]2[C@H](OC(=O)c2ccccc2)[C@]2(O)C[C@H](OC(=O)[C@H](O)[C@@H](NC(=O)OC(C)(C)C)c3ccccc3)C(C)=C1C2(C)C [cabazitaxel] ... comparable cytotoxicity
COC1C(=O)C2(C)C(OC)CC3OCC3(OC(C)=O)C2C(OC(=O)c2ccccc2)C2(O)CC(OC(=O)C(OC(=O)C(N)CC(C)C)C(NC(=O)OC(C)(C)C)c3ccccc3)C(C)=C1C2(C)C [L-cabazitaxel, NH2-Leu-Cabazitaxel] ... comparable cytotoxicity

Provenance of the data: paper PMC12059896
